Where these numbers come from: patent US8455534B2

Target: ER-α (Homo sapiens, UniProt P03372)
Sequence (P03372 whole entry): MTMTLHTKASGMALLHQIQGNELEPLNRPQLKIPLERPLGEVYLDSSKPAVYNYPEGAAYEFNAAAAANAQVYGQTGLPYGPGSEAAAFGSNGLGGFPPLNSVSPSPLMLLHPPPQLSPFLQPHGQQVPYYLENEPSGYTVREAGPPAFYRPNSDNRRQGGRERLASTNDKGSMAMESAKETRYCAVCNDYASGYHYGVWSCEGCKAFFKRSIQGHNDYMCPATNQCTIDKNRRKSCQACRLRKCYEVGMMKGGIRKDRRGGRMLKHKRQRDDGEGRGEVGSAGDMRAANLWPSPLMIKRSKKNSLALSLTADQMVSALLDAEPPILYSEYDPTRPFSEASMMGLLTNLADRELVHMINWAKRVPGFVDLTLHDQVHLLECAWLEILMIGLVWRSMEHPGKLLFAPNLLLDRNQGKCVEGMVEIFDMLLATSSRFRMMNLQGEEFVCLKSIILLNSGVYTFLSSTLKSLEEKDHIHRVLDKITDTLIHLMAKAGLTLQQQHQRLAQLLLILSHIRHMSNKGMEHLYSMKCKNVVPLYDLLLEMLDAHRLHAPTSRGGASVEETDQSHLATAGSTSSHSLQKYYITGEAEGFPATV
Experiment: Breast Cancer Cell ER-α In Cell Western Assay (SP1)
Type: cell-based
Conditions: MCF7; MCF-7 cells, SP1 antibody, 4 or 24 hr post compound addition; read-out: ER-α In Cell Western Assay (SP1) Max Response
RECORDED METRIC: Emax

| COMPOUND | RESULT |
| --- | --- |
| COCCCC/C(=C(/c1ccc(/C=C/C(=O)O)cc1)c1ccc2[nH]ncc2c1)c1ccccc1 | ≥ 40% |
| CCOC(=O)/C=C/c1ccc(/C(=C(/CC)c2ccc(F)cc2Cl)c2ccc3[nH]ncc3c2)cc1.Cl [Compound 110, hydrochloride] | ≥ 40% |
| CC/C(=C(/c1ccc(/C=C/C(=O)O)cc1)c1ccc2[nH]nc(C)c2c1)c1ccccc1 | ≥ 40% |
| CC/C(=C(/c1ccc(/C=C/C(=O)O)cc1)c1ccc2[nH]ncc2c1)c1cccc(F)c1Cl | ≥ 40% |
| CC/C(=C(/c1ccc(/C=C/C(=O)O)c(F)c1)c1ccc2[nH]ncc2c1)c1ccccc1 | ≥ 40% |
| CC/C(=C(/c1ccc(/C=C/C(=O)O)cc1)c1ccc2[nH]ncc2c1)c1cc(OC)ccc1Cl | ≥ 40% |

Item CCCC/C(=C(/c1ccc(/C=C/C(=O)O)cc1)c1ccc2[nH]ncc2c1)c1ccccc1 : provide Emax
≥ 40%

Could you please provide reported Emax for CC/C(=C(/c1ccc(/C=C/C(=O)O)cc1)c1cc(C)c2[nH]ncc2c1)c1ccccc1 ? Thanks!
≥ 40%

Give reported Emax value for CC/C(=C(/c1ccc(/C=C/C(=O)O)cc1)c1ccc2[nH]ncc2c1)c1ccc(F)cc1C(F)(F)F
≥ 40%

Identify measured Emax associated with CC/C(=C(/c1ccc(/C=C/C(=O)O)cc1)c1ccc2[nH]ncc2c1)c1cccc(OC)c1Cl
≥ 40%

Please report the measured Emax for CC/C(=C(/c1ccc(/C=C/C(=O)O)cc1)c1cc2cn[nH]c2cc1Cl)c1ccccc1
≥ 40%

Give recorded Emax. O=C(O)/C=C/c1ccc(/C(=C(\c2ccccc2)C2CCCCC2)c2ccc3[nH]ncc3c2)cc1
≥ 40%

Look up Emax of CCCCOc1cccc(/C(CC)=C(\c2ccc(/C=C/C(=O)O)cc2)c2ccc3[nH]ncc3c2)c1 and report it.
≥ 40%

Give the reported Emax for this compound. CC/C(=C(/c1ccc(/C=C/C(=O)O)cc1)c1ccc2[nH]ncc2c1)c1ccccc1
≥ 40%

Give the value of Emax reported for the following: CC/C(=C(/c1ccc(/C=C/C(=O)O)cc1)c1ccc2[nH]ncc2c1)c1cccc(CO)c1
≥ 40%

----------
Target: ER-α (Homo sapiens, UniProt P03372)
Experiment: Breast Cancer Cell ER-α In Cell Western Assay (SP1)
Type: cell-based
Settings: MCF7; MCF-7 cells, SP1 antibody, 4 or 24 hr post compound addition; read-out: ER-α In Cell Western Assay (SP1) Max Response
RECORDED METRIC: Emax

A selection of reference data follows.
| COMPOUND | RESULT |
| --- | --- |
| CC/C(=C(/c1ccc(/C=C/C(=O)O)cc1)c1ccc2c(cnn2C)c1)c1ccc(F)cc1Cl [Compound 147] | ≥ 40% |
| CC/C(=C(/c1ccc(/C=C/C(=O)O)cc1)c1ccc2[nH]ncc2c1)c1ccc(CO)cc1 [Compound 7] | ≥ 40% |
| CC/C(=C(/c1ccc(/C=C/C(=O)O)cc1)c1cc2cn[nH]c2cc1F)c1ccccc1 [Compound 58] | ≥ 40% |

Find the measured Emax of CC/C(=C(/c1ccc(/C=C/C(=O)O)cc1)c1ccc2[nH]ncc2c1)c1ccc(F)cc1C [Compound 25] and report it.
≥ 40%
